- Test system: Vero
- measurement.notes: Relative antiplasmodial activity to cytotoxicity in Plasmodium falciparum TM4/8.2 infected Vero cells
- Assay type: functional
outcome.measure: Safety ratio
# output: bare number, no unit

Req: Which Safety ratio value is on record for NC1=NC(c2cccc(Oc3ccc(Cl)cc3)c2)N(c2ccc(Cl)cc2)C(N)=N1 (stereo unspecified) ?
Resp: 11.1

Req: Next: NC1=NC(c2cccc(OCCCOc3cc(Cl)c(Cl)cc3Cl)c2)N(c2cccc(Cl)c2)C(N)=N1 (stereo unspecified)
Resp: 6

Req: Next: NC1=NC(c2ccccc2)N(c2cccc(Cl)c2)C(N)=N1 (stereo unspecified)
Resp: 446

Req: Next: CCCCCCC1(C)N=C(N)N=C(N)N1c1cccc(Cl)c1 (stereo unspecified)
Resp: 3833

Req: Next: "CCCCCCc1nc(N)nc(N)c1-c1ccccc1"
Resp: 917

Req: Next: "Nc1nc(N)c(-c2cccc(Cl)c2)c(CCCOC(=O)c2ccccc2)n1"
Resp: 29

====

- System: Bifunctional dihydrofolate reductase-thymidylate synthase (Plasmodium falciparum K1), P13922 [UNDEFINED MUTATION]
- measurement.notes: Ratio of binding affinity for mutant (A16V+S108T) to that of wild type dihydrofolate reductase
Output schema: class label derived from Ratio. Mapping: range A = under 2, range B = from 2 up to 100, range C = 100 and over

Req: Would you mind sorting NC1=NC(c2cccc(OCc3ccccc3)c2)N(c2cccc(Cl)c2)C(N)=N1 (stereo unspecified) into the appropriate category?
Resp: range A

Req: Next: NC1=NC(c2cccc(Oc3cc(Cl)cc(Cl)c3)c2)N(c2cccc(Cl)c2)C(N)=N1 (stereo unspecified)
Resp: range B

Req: Next: NC1=NC(c2cccc(Oc3cccc(C(F)(F)F)c3)c2)N(c2cccc(Cl)c2)C(N)=N1 (stereo unspecified)
Resp: range B

Req: Next: "CC1(C)N=C(N)N=C(N)N1c1ccc(Cl)cc1"
Resp: range C

Req: Next: CC1N=C(N)N=C(N)N1c1ccc(Cl)cc1 (stereo unspecified)
Resp: range B

Req: Next: NC1=NC(c2cccc(Oc3ccccc3)c2)N(c2cccc(Cl)c2)C(N)=N1 (stereo unspecified)
Resp: range B

Req: Next: CCCC1(C)N=C(N)N=C(N)N1c1ccc(Cl)cc1 (stereo unspecified)
Resp: range C

Req: Next: CCCCCCC1(C)N=C(N)N=C(N)N1c1ccc(Cl)cc1 (stereo unspecified)
Resp: range C

Req: Next: CC(C)C1(C)N=C(N)N=C(N)N1c1cccc(Cl)c1 (stereo unspecified)
Resp: range B

Req: Next: CCCCCCCC1N=C(N)N=C(N)N1c1cccc(Cl)c1 (stereo unspecified)
Resp: range A

====

- Tested on: Bifunctional dihydrofolate reductase-thymidylate synthase (Plasmodium falciparum K1), P13922 [UNDEFINED MUTATION]
- measurement.notes: Ratio of binding affinity for mutant (C59R+S108N+I164L) to that of wild type dihydrofolate reductase
outcome.measure: Ratio

Req: Which Ratio value is on record for NC1=NC(c2cccc(Oc3ccccc3)c2)N(c2cccc(Cl)c2)C(N)=N1 (stereo not given) ?
Resp: 2.7

Req: Next: "CCc1nc(N)nc(N)c1-c1ccc(Cl)c(Cl)c1"
Resp: 41

Req: Next: "COC(=O)CCCc1nc(N)nc(N)c1-c1ccccc1"
Resp: 25

Req: Next: "COc1ccc(CCCc2nc(N)nc(N)c2-c2cccc(Cl)c2)cc1"
Resp: 1.3

Req: Next: "COC(=O)CCCc1nc(N)nc(N)c1-c1cccc(Cl)c1"
Resp: 3.6

Req: Next: NC1=NC(c2cccc(Oc3cc(Cl)cc(Cl)c3)c2)N(c2cccc(Cl)c2)C(N)=N1 (stereo not given)
Resp: 0.3

Req: Next: NC1=NC(c2cccc(Oc3cccc(C(F)(F)F)c3)c2)N(c2cccc(Cl)c2)C(N)=N1 (stereo not given)
Resp: 0.2

Req: Next: CCCC1(C)N=C(N)N=C(N)N1c1cccc(Cl)c1 (stereo not given)
Resp: 7.2

Req: Next: NC1=NC(c2ccc(Oc3ccccc3)cc2)N(c2cccc(Cl)c2)C(N)=N1 (stereo not given)
Resp: 0.5

Req: Next: NC1=NC(c2cccc(OCc3ccccc3)c2)N(c2ccc(Cl)cc2)C(N)=N1 (stereo not given)
Resp: 1100

====

- target.under.test: Bifunctional dihydrofolate reductase-thymidylate synthase (Plasmodium falciparum K1, UniProt P13922, A16V/S108T)
- Sequence (P13922 whole entry, looked up, stated change not applied): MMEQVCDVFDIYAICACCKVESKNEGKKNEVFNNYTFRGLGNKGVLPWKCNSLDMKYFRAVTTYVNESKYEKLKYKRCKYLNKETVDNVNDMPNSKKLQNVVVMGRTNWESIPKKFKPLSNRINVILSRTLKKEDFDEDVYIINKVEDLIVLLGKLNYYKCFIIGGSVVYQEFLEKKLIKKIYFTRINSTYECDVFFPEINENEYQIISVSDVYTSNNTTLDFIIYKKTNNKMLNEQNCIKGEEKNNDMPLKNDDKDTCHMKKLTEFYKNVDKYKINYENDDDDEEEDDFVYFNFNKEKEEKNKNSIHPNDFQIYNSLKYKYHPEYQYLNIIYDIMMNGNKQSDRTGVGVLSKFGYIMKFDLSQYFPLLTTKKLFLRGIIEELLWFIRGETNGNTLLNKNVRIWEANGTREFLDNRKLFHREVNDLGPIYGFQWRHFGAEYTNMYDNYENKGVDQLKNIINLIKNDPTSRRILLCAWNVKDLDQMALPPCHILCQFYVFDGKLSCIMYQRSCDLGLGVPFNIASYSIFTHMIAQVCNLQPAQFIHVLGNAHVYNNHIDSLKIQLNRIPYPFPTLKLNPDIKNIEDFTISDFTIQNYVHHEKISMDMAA
- measurement.notes: Binding affinity towards mutant dihydrofolate reductase (A16V+S108T DHFR) of Plasmodium falciparum.
pKi: −log10 of the molar value.
Kind request: treat 8 as inclusive, so pKi at 8 or higher is t, anything lower is f.

Req: Is it the case that CC(C)C1(C)N=C(N)N=C(N)N1c1ccc(Cl)cc1 (stereo not given) has pKi reaching or exceeding 8?
Resp: f

Req: Next: NC1=NC(c2ccc(Oc3ccccc3)cc2)N(c2cccc(Cl)c2)C(N)=N1 (stereo not given)
Resp: t

Req: Next: CCCCCCC1(C)N=C(N)N=C(N)N1c1ccc(Cl)cc1 (stereo not given)
Resp: f

Req: Next: CCCC1(C)N=C(N)N=C(N)N1c1ccc(Cl)cc1 (stereo not given)
Resp: f

Req: Next: NC1=NC(c2cccc(Oc3ccccc3)c2)N(c2ccc(Cl)cc2)C(N)=N1 (stereo not given)
Resp: t

Req: Next: NC1=NC(c2cccc(OCc3ccccc3)c2)N(c2cccc(Cl)c2)C(N)=N1 (stereo not given)
Resp: t

Req: Next: CCCCCCCC1N=C(N)N=C(N)N1c1cccc(Cl)c1 (stereo not given)
Resp: t

====

- Test system: Bifunctional dihydrofolate reductase-thymidylate synthase (Plasmodium falciparum K1), P13922 [UNDEFINED MUTATION]
- measurement.notes: Ratio of binding affinity for mutant (C59R+S108N+I164L) to that of wild type dihydrofolate reductase
Kind request: treat 20 as inclusive, so Ratio at 20 or higher is yes, anything lower is no.

Req: Is it the case that NC1=NC(c2ccccc2)N(c2cccc(Cl)c2)C(N)=N1 (centres undefined) has Ratio reaching or exceeding 20?
Resp: no

Req: Next: NC1=NC(c2cccc(OCc3ccccc3)c2)N(c2cccc(Cl)c2)C(N)=N1 (centres undefined)
Resp: no

Req: Next: CC(C)C1(C)N=C(N)N=C(N)N1c1ccc(Cl)cc1 (centres undefined)
Resp: yes

Req: Next: "Nc1nc(N)c(-c2ccccc2)c(CCCc2ccccc2)n1"
Resp: no

Req: Next: NC1=NC(c2cccc(Oc3ccccc3)c2)N(c2ccc(Cl)cc2)C(N)=N1 (centres undefined)
Resp: yes

Req: Next: "CC(=O)OCCCc1nc(N)nc(N)c1-c1cccc(Cl)c1"
Resp: no

Req: Next: "Nc1nc(N)c(-c2ccccc2)c(CCCOC(=O)c2ccccc2)n1"
Resp: no

Req: Next: NC1=NC(c2cccc(OCCCOc3cc(Cl)c(Cl)cc3Cl)c2)N(c2cccc(Cl)c2)C(N)=N1 (centres undefined)
Resp: no

Req: Next: "Nc1nc(N)c(-c2ccccc2)c(CCCO)n1"
Resp: no

Req: Next: "CCc1nc(N)nc(N)c1-c1ccc(C)cc1"
Resp: yes

Req: Next: "CCc1nc(N)nc(N)c1-c1ccc2c(c1)OCO2"
Resp: yes

Req: Next: CC(C)C1(C)N=C(N)N=C(N)N1c1cccc(Cl)c1 (centres undefined)
Resp: no

Req: Next: CCCCCCC1(C)N=C(N)N=C(N)N1c1ccc(Cl)cc1 (centres undefined)
Resp: yes

Req: Next: "Nc1nc(N)c(-c2cccc(Cl)c2)c(CCOCCCOc2ccccc2)n1"
Resp: no

Req: Next: CCCCCCCC1N=C(N)N=C(N)N1c1cccc(Cl)c1 (centres undefined)
Resp: no

Req: Next: "COC(=O)CCCc1nc(N)nc(N)c1-c1ccc(Cl)cc1"
Resp: yes

Req: Next: "CC(=O)OCCCc1nc(N)nc(N)c1-c1ccccc1"
Resp: no

Req: Next: "Nc1nc(N)c(-c2ccc(Cl)cc2)c(CCCc2ccccc2)n1"
Resp: yes

Req: Next: CC1N=C(N)N=C(N)N1c1ccc(Cl)cc1 (centres undefined)
Resp: yes

====

- System: Bifunctional dihydrofolate reductase-thymidylate synthase (Plasmodium falciparum K1), P13922 [UNDEFINED MUTATION]
- measurement.notes: Ratio of binding affinity for mutant (N51I+C59R+S108N+I164L) to that of wild type dihydrofolate reductase
Kind request: treat 7 as inclusive, so Ratio at 7 or higher is criterion met, anything lower is criterion not met.

Req: Is it the case that "COc1ccc(CCCc2nc(N)nc(N)c2-c2cccc(Cl)c2)cc1" has Ratio reaching or exceeding 7?
Resp: criterion not met

Req: Next: NC1=NC(c2cccc(Oc3ccccc3)c2)N(c2cccc(Cl)c2)C(N)=N1 (stereo unspecified)
Resp: criterion not met

Req: Next: "Nc1nc(N)c(-c2cccc(Cl)c2)c(CCCOC(=O)c2ccccc2)n1"
Resp: criterion not met

Req: Next: CCCC1(C)N=C(N)N=C(N)N1c1cccc(Cl)c1 (stereo unspecified)
Resp: criterion met

Req: Next: "COC(=O)CCCc1nc(N)nc(N)c1-c1cccc(Cl)c1"
Resp: criterion not met

Req: Next: "Cc1nc(N)nc(N)c1-c1cccc(Cl)c1"
Resp: criterion met

Req: Next: CCCCCCC1(C)N=C(N)N=C(N)N1c1cccc(Cl)c1 (stereo unspecified)
Resp: criterion not met

Req: Next: "COC(=O)CCCc1nc(N)nc(N)c1-c1ccc(Cl)cc1"
Resp: criterion met

Req: Next: CC(C)C1(C)N=C(N)N=C(N)N1c1ccc(Cl)cc1 (stereo unspecified)
Resp: criterion met

Req: Next: "Nc1nc(N)c(-c2ccc(Cl)cc2)c(CCCc2ccccc2)n1"
Resp: criterion met

Req: Next: NC1=NC(c2ccc(Oc3ccccc3)cc2)N(c2cccc(Cl)c2)C(N)=N1 (stereo unspecified)
Resp: criterion not met
